Target: human MERTK cytoplasmic domain (Homo sapiens, UniProt Q12866)
Construct: human MERTK cytoplasmic domain (Carna Biosciences 08-108); purchased Carna Biosciences 08-108
Sequence (Q12866 527-999): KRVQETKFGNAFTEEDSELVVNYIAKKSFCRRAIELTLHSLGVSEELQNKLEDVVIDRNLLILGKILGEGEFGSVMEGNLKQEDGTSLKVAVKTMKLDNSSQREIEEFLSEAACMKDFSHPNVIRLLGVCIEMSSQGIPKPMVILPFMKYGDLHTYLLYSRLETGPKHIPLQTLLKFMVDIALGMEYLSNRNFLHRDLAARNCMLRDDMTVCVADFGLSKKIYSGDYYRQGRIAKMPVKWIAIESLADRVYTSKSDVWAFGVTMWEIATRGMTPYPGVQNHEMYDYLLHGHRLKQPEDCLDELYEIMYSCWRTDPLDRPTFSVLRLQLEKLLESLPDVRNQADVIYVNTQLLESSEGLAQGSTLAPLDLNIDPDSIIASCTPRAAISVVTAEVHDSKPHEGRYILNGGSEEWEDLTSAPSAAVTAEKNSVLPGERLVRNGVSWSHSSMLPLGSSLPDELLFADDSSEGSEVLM
Experiment: biochemical
Details: 30 uM ATP; read-out: Assay 1a Mer IC50 30 uM ATP
Response field label takes Criterion met when IC50 is strictly below 4 nM and Criterion not met in all other cases.

- COMPOUND: "CC(C)n1cc(C(=O)Nc2ccc(Nc3ccnc4cnc(C(=O)NCCN(C)C)cc34)cc2)c(=O)n(-c2ccc(F)cc2)c1=O [Example 7.1]"
  EXPERIMENTAL SYSTEM: "human MERTK cytoplasmic domain (Homo sapiens, UniProt Q12866)"
  CLASS: "Criterion not met"
- COMPOUND: "CC(C)n1cc(C(=O)Nc2ccc(Oc3ccnc4cnc(C5CCN(C)CC5)cc34)cn2)c(=O)c(-c2ccc(F)cc2)c1 [Example 23]"
  EXPERIMENTAL SYSTEM: "human MERTK cytoplasmic domain (Homo sapiens, UniProt Q12866)"
  CLASS: "Criterion met"
- COMPOUND: "CN1CCC(C(=O)Nc2cc3c(Oc4ccc(NC(=O)c5cccn(-c6ccc(F)cc6)c5=O)nc4)ccnc3cn2)C1 (stereo not shown) [Example 18]"
  EXPERIMENTAL SYSTEM: "human MERTK cytoplasmic domain (Homo sapiens, UniProt Q12866)"
  CLASS: "Criterion met"

Q. Record Cc1c(C(=O)Nc2ccc(Oc3ccnc4cnc(C(=O)NC5CCN(C)CC5)cc34)cc2)c(=O)n(-c2ccccc2)n1C [Example 8.3] : is its IC50 strictly below 4 nM?
A. Criterion not met

Q. Identify whether the compound CC(C)n1cc(C(=O)Nc2ccc(Oc3ccnc4cnc(C(=O)NC5CCN(C)CC5)cc34)cc2)c(=O)n(-c2ccc(F)cn2)c1=O [Example 9] records IC50 below 4 nM.
A. Criterion not met

Q. Dear reviewer, please state whether CC(C)n1cc(C(=O)Nc2ccc(Oc3ccnc4cnc(C5CCN(C)CC5)cc34)cn2)c(=O)n(-c2ccc(F)cc2)c1=O [Example 23.1] has IC50 strictly beneath 4 nM.
A. Criterion not met
